Reference for the values: patent US6410594B1

molecular target: H1N9 Influenza Neuraminidase (Influenza A virus); experiment: biochemical; settings: 10 min at 37° C.; read-out: Inhibition of H1N9 Influenza Neuraminidase IC50
Sequence (P03472 83-470 limits assumed): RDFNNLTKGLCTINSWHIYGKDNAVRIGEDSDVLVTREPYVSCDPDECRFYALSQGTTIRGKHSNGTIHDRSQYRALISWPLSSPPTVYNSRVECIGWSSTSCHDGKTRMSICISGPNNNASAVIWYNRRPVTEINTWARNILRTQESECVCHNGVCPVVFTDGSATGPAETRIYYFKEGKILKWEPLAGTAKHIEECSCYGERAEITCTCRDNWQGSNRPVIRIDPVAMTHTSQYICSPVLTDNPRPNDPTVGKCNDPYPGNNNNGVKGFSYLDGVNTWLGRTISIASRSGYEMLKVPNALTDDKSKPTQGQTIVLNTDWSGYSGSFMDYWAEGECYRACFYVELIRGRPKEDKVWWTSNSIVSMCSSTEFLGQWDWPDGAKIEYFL
pIC50: −log10 of the molar value.
reportedEndpoint: pIC50

>>> reported("CC(=O)NC[C@@H]1C[C@H](C(=O)O)C[C@H]1NC(=N)N (relative stereo) [Example 3]")
3.94
>>> reported("CC(=O)NC(CO)[C@H]1CC(C(=O)O)C[C@@H]1NC(=N)N (single isomer, unassigned; isomer a) [Example 6]")
4.05
>>> reported("CC(=O)NC(CO)[C@H]1CC(C(=O)O)C[C@@H]1NC(=N)N (single isomer, unassigned; isomer b) [Example 7]")
2.42
>>> reported("CON(C)CCC(=O)C(NC(C)=O)[C@H]1CC(C(=O)O)C[C@@H]1NC(=N)N (stereo partly drawn) [Example 20]")
5.10
>>> reported("CC(=O)NC(COC(=O)C(F)(F)F)[C@H]1C[C@](O)(C(=O)O)C[C@@H]1NC(=N)N (single isomer, unassigned; isomer b) [Example 17]")
2.70
>>> reported("CON(C)C(=O)C(NC(C)=O)[C@H]1C[C@](O)(C(=O)O)C[C@@H]1NC(=N)N (stereo partly drawn) [Example 19]")
4.80
